# experimental-target: Kdr (Homo sapiens, UniProt P35968)
# Construct: Kinases are expressed as either kinase domains or full length constructs; made in house
# Sequence (P35968 20-1356, species assumed): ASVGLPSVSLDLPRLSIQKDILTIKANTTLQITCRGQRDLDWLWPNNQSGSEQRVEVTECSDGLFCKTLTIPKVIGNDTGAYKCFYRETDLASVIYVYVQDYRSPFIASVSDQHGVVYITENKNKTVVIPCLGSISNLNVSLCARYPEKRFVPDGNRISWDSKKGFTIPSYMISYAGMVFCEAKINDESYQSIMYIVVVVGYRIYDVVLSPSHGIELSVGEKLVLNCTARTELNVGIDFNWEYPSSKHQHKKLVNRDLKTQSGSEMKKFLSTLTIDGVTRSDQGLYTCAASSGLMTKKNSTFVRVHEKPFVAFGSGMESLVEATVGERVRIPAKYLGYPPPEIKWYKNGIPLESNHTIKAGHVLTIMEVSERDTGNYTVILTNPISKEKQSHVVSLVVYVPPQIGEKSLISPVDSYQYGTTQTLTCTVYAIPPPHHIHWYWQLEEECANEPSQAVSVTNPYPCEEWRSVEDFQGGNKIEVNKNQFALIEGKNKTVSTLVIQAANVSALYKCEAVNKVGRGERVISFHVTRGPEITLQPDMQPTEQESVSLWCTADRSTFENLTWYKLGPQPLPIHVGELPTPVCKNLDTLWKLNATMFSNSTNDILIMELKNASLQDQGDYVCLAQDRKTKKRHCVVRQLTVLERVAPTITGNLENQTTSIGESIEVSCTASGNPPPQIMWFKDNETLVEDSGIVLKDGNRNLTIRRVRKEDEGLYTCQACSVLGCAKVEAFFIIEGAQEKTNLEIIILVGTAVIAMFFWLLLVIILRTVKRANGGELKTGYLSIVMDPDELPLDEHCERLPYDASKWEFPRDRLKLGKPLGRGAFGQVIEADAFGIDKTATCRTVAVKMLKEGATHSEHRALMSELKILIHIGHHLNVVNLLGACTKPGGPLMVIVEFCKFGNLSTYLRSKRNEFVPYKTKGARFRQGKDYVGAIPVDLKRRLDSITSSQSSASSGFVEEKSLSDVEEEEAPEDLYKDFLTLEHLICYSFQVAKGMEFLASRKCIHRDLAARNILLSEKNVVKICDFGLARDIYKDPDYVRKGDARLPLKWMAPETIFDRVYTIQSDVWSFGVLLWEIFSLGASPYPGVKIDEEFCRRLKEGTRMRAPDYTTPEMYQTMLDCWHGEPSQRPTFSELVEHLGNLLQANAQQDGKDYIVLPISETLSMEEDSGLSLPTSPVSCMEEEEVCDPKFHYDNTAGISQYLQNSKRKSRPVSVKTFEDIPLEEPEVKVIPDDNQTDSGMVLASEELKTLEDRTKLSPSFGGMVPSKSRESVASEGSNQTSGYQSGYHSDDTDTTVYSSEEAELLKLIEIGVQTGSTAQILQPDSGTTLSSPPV
# assay-details: Kinase inhibition assay (33P transfer), Kdr
# Format: biochemical
# condition-details: Table 3, class symbols; read-out: KDR-1
pIC50: −log10 of the molar value.
parameter-measured: pIC50

{"molecule": "COc1cc(Nc2ncnc(-c3cccnc3Nc3cccc(C(F)(F)F)c3)n2)cc(OC)c1OC", "experimental-target": "Kdr (Homo sapiens, UniProt P35968)", "parameter-measured": "pIC50", "experimental-value": "< 5.04"}
{"molecule": "CNS(=O)(=O)Cc1ccc(Nc2ncnc(Nc3cc(-c4ccc(C(=O)OC)cc4)n[nH]3)n2)cc1", "experimental-target": "Kdr (Homo sapiens, UniProt P35968)", "parameter-measured": "pIC50", "experimental-value": "< 5.04"}
{"molecule": "c1cc(Cn2ccnn2)cc(Nc2ncnc(-n3c(Nc4ccc5[nH]ccc5c4)nc4ccccc43)n2)c1", "experimental-target": "Kdr (Homo sapiens, UniProt P35968)", "parameter-measured": "pIC50", "experimental-value": "> 6.10"}
{"molecule": "CN(c1cccc(Cl)c1)c1ncnc(Nc2ccc(OC(F)(F)F)cc2)n1", "experimental-target": "Kdr (Homo sapiens, UniProt P35968)", "parameter-measured": "pIC50", "experimental-value": "< 4.94"}
{"molecule": "COc1cc(Nc2ncnc(-c3cccnc3NC(C)c3ccccc3)n2)cc(OC)c1OC (centres unmarked)", "experimental-target": "Kdr (Homo sapiens, UniProt P35968)", "parameter-measured": "pIC50", "experimental-value": "> 6.06"}

###

# experimental-target: Zap-70 (Homo sapiens, UniProt P43403)
# Construct: Kinases are expressed as either kinase domains or full length constructs; made in house
# Sequence (P43403 1-619): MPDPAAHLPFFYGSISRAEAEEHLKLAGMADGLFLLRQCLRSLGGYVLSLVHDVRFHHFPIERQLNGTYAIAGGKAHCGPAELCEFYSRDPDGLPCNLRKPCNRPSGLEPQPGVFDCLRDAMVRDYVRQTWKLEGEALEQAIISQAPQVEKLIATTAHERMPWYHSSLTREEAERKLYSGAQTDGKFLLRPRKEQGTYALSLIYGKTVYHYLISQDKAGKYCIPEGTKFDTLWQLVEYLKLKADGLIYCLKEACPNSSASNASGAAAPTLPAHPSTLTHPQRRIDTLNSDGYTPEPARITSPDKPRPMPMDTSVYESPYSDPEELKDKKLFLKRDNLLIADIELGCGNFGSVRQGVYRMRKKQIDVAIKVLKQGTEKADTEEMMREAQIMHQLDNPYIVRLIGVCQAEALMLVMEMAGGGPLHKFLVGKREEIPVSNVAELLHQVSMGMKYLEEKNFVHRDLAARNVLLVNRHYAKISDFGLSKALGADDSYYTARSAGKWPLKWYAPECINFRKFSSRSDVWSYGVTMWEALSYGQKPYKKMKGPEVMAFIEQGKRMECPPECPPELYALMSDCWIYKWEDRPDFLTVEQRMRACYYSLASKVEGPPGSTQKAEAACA
# assay-details: Kinase inhibition assay (33P transfer), Zap-70
# Assay type: biochemical
# condition-details: Table 3, class symbols; read-out: Zap-1
# Excerpt: The inhibitor compounds described herein are screened in the following manner. […] Kinases are expressed as either kinase domains or full length constructs fused to glutathione S-transferase (GST) or polyHistidine tagged fusion proteins in either E. colior Baculovirus-High Five expression systems. […]
parameter-measured: IC50

{"input-smiles": "FC(F)(F)Oc1cccc(Nc2ncnc(Nc3ccc4c(cnn4Cc4ccccc4)c3)n2)c1", "parameter-measured": "IC50", "experimental-value": "> 9.43 µM"}
{"input-smiles": "Fc1ccc(Nc2ncnc(Nc3ccc4c(cnn4Cc4ccccc4)c3)n2)cc1F", "parameter-measured": "IC50", "experimental-value": "> 10.5 µM"}
{"input-smiles": "COc1ccc(Nc2ncnc(N(C)c3ccc4c(cnn4Cc4ccccc4)c3)n2)cc1OC", "parameter-measured": "IC50", "experimental-value": "> 9.62 µM"}
{"input-smiles": "Clc1cc(Nc2ncnc(Nc3ccc4c(cnn4Cc4ccccc4)c3)n2)cc(Cl)c1Cl", "parameter-measured": "IC50", "experimental-value": "> 9.06 µM"}
{"input-smiles": "COc1ccc(Nc2ncnc(N(C)c3ccc(F)cc3F)n2)cc1OC", "parameter-measured": "IC50", "experimental-value": "> 12.1 µM"}
{"input-smiles": "COc1ccc(Nc2ncnc(N(C)c3ccc(S(=O)(=O)O)cc3)n2)cc1OC", "parameter-measured": "IC50", "experimental-value": "> 10.8 µM"}
{"input-smiles": "COc1cc(Nc2ncnc(-c3cccnc3Nc3cccc4c3CCCC4)n2)cc(OC)c1OC", "parameter-measured": "IC50", "experimental-value": "> 9.29 µM"}
{"input-smiles": "COc1cc(Nc2ncnc(N3CCCc4cc(Cl)ccc43)n2)cc(OC)c1OC", "parameter-measured": "IC50", "experimental-value": "> 10.5 µM"}
{"input-smiles": "COc1ccc(Nc2ncnc(Nc3ccc4ncsc4c3)n2)cc1OC", "parameter-measured": "IC50", "experimental-value": "> 11.8 µM"}
{"input-smiles": "COc1cc(C)c(Nc2ncnc(Nc3cc(-c4ccc(C)cc4)n[nH]3)n2)cc1OC", "parameter-measured": "IC50", "experimental-value": "> 10.8 µM"}
{"input-smiles": "COC(=O)c1ccc(-c2cc(Nc3ncnc(NCCNC(C)=O)n3)[nH]n2)cc1", "parameter-measured": "IC50", "experimental-value": "> 11.4 µM"}
{"input-smiles": "COc1cc(Nc2ncnc(-c3cccnc3NCc3ccccc3OC(F)(F)F)n2)cc(OC)c1OC", "parameter-measured": "IC50", "experimental-value": "6.62 to 8.51 µM"}
{"input-smiles": "COc1cc(Nc2ncnc(-c3cccnc3NC3CCCCC3)n2)cc(OC)c1OC", "parameter-measured": "IC50", "experimental-value": "> 10.3 µM"}
{"input-smiles": "OCc1cccc(Nc2ncnc(-c3cccnc3NCc3ccc(F)cc3)n2)c1", "parameter-measured": "IC50", "experimental-value": "> 11.2 µM"}
{"input-smiles": "CN(c1cccc(Cl)c1)c1ncnc(Nc2cccc(Cn3ccnn3)c2)n1", "parameter-measured": "IC50", "experimental-value": "> 11.5 µM"}
{"input-smiles": "COc1ccc(Nc2ncnc(NCCc3ccc(Cl)c(Cl)c3)n2)cc1OC", "parameter-measured": "IC50", "experimental-value": "0.952 to 5.71 µM"}
{"input-smiles": "CN(c1cccc(Cl)c1)c1ncnc(Nc2ccc(OC(F)(F)F)cc2)n1", "parameter-measured": "IC50", "experimental-value": "> 11.4 µM"}
{"input-smiles": "c1ccc(Nc2ncccc2-c2ncnc(Nc3ccc4[nH]ncc4c3)n2)cc1", "parameter-measured": "IC50", "experimental-value": "> 11.8 µM"}
{"input-smiles": "O=C(O)Cc1cccc(Nc2ncnc(-c3cccnc3NCc3ccccc3)n2)c1", "parameter-measured": "IC50", "experimental-value": "> 10.9 µM"}

###

pIC50: −log10 of the molar value.
ErbB2 (Homo sapiens) data, read-out pIC50
Sequence (P04626 23-1255, species assumed): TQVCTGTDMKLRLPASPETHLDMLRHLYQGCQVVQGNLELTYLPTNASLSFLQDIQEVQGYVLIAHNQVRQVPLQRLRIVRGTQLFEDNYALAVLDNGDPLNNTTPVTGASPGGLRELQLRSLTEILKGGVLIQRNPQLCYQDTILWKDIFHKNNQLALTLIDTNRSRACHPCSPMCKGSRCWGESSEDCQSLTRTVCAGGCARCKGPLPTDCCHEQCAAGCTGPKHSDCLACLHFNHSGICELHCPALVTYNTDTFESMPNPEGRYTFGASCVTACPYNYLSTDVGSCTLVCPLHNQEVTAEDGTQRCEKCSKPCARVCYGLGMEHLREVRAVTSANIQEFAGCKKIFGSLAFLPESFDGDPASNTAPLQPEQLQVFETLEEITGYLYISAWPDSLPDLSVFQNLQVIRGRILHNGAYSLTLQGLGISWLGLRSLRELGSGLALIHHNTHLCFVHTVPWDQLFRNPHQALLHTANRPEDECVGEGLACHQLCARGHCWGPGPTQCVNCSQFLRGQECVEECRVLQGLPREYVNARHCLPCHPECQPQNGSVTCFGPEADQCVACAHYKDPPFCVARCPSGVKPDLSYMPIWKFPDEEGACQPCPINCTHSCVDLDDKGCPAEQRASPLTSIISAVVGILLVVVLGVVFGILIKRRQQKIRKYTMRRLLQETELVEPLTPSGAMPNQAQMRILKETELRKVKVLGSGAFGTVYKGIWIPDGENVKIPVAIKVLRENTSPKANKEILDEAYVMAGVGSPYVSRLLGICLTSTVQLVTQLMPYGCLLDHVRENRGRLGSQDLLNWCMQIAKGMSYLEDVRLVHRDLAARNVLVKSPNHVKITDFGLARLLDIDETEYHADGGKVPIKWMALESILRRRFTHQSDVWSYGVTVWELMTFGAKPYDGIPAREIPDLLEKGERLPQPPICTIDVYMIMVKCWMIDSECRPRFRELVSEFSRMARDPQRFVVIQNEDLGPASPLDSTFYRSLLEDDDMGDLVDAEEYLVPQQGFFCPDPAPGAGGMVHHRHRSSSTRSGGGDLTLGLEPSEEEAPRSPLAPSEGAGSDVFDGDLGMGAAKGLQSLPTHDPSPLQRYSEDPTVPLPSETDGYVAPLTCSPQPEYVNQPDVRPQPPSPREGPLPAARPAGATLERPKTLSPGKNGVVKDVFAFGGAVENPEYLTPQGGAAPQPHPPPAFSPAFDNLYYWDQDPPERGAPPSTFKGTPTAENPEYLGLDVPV
parameter-measured: pIC50

{"input-smiles": "COc1cc(Nc2ncnc(-c3cccnc3Nc3cc(Cl)cc(Cl)c3)n2)cc(OC)c1OC", "experimental-value": "< 5.05"}
{"input-smiles": "COc1cc(Nc2ncnc(-c3cccnc3NCc3ccc(F)cc3)n2)cc(OC)c1OC", "experimental-value": "< 5.01"}
{"input-smiles": "COc1cc(Nc2ncnc(Oc3ccc(OCc4ccccc4)cc3)n2)cc(OC)c1OC", "experimental-value": "< 5.01"}
{"input-smiles": "COc1ccc2c(c1)CCCN2c1ncnc(Nc2cc(OC)c(OC)c(OC)c2)n1", "experimental-value": "5.25 to 6.02"}
{"input-smiles": "CN(c1cccc(Cl)c1)c1ncnc(Nc2ccc3c(cnn3C)c2)n1", "experimental-value": "5.18 to 5.96"}
{"input-smiles": "COc1cc(Nc2ncnc(Nc3cccc(C(F)(F)F)c3)n2)cc(OC)c1OC", "experimental-value": "5.24 to 6.02"}
{"input-smiles": "COc1cc(Nc2ncnc(Nc3cc(Cl)c(NC(=O)c4ccccc4)cc3C)n2)cc(OC)c1OC", "experimental-value": "5.34 to 6.11"}
{"input-smiles": "CC(C)Nc1ncccc1-c1ncnc(Nc2cccc(Cn3ccnn3)c2)n1", "experimental-value": "< 4.94"}
{"input-smiles": "COC(=O)c1ccc(-c2cc(Nc3ncnc(NCc4cccs4)n3)[nH]n2)cc1", "experimental-value": "< 4.96"}
{"input-smiles": "COc1cc(Nc2ncnc(-c3cccnc3Nc3cccc4c3CCCC4)n2)cc(OC)c1OC", "experimental-value": "< 5.03"}

###

Recorded IC50 values for a group of compounds are listed next.
# experimental-target: c-Met (Homo sapiens)
# Construct: Kinases are expressed as either kinase domains or full length constructs; made in house
# Sequence (P08581 25-1390): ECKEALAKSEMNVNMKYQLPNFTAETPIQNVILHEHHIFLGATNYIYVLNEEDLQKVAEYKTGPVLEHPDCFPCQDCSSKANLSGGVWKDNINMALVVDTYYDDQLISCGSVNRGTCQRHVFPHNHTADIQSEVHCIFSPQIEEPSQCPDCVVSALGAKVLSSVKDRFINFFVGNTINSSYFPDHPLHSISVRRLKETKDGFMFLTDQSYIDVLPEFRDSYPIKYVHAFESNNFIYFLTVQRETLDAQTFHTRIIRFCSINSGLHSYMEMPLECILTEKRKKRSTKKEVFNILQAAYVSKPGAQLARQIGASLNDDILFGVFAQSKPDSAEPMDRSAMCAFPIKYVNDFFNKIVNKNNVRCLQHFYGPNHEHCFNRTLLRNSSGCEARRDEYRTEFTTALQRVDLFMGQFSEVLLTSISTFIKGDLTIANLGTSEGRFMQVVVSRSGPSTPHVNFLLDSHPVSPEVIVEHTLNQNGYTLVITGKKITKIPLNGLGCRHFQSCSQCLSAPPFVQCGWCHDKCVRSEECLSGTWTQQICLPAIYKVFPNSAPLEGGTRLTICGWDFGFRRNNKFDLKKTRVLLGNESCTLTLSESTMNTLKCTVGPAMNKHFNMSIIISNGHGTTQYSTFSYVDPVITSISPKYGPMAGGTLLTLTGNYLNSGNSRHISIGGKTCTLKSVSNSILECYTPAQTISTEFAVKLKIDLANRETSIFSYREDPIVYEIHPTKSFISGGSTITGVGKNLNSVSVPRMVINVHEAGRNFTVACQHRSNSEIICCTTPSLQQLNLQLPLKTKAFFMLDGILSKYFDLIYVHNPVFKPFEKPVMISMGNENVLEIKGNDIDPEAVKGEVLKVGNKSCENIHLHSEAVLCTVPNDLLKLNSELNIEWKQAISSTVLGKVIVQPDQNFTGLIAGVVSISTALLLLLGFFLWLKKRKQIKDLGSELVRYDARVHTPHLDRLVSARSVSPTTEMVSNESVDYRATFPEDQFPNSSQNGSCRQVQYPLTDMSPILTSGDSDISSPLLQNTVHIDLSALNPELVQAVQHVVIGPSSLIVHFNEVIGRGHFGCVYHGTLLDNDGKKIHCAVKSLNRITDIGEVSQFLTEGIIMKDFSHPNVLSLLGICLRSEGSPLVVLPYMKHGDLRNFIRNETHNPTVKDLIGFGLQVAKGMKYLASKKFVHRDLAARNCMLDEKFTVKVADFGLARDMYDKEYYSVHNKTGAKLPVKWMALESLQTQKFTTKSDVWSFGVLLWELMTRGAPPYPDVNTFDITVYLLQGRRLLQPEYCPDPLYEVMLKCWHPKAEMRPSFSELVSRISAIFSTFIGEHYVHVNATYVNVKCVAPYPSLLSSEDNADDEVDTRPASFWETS
# assay-details: Kinase inhibition assay (33P transfer), c-Met
# Format: biochemical
# condition-details: Table 2, class symbols A-E; read-out: Met-1

{"compound": "COc1cc(Nc2ncnc(-c3cccnc3Nc3cc(Cl)cc(Cl)c3)n2)cc(OC)c1OC [Compound 837]", "IC50": "> 9.01 µM"}
{"compound": "COc1cc(CNc2ncnc(Nc3cc(-c4ccco4)n[nH]3)n2)cc(OC)c1OC [Compound 997]", "IC50": "> 10.6 µM"}
{"compound": "COc1cc(Nc2ncnc(-c3cccnc3Nc3cccc(Oc4ccccc4)c3)n2)cc(OC)c1OC [Compound 840]", "IC50": "> 8.61 µM"}
{"compound": "COc1ccc(N(C)c2ncnc(Nc3ccc(OC)c(OC)c3)n2)cc1 [Compound 863]", "IC50": "1.09 to 6.53 µM"}
{"compound": "CN(c1cccc(Cl)c1)c1ncnc(Nc2ccc3nn(C)cc3c2)n1 [Compound 675]", "IC50": "1.09 to 6.56 µM"}
{"compound": "COc1cc(Nc2ncnc(-c3cccnc3NCc3cccc4ccccc34)n2)cc(OC)c1OC [Compound 844]", "IC50": "> 9.1 µM"}
{"compound": "COc1cc(Nc2ncnc(-c3cccnc3N[C@H](C)c3ccccc3)n2)cc(OC)c1OC [Compound 1110]", "IC50": "> 9.81 µM"}
{"compound": "COc1ccc(Nc2ncnc(Nc3cc(Cl)cc(Cl)c3)n2)cc1OC [Compound 898]", "IC50": "> 11.5 µM"}
{"compound": "COC(=O)c1ccc(-c2cc(Nc3ncnc(Nc4cc(Cl)cc(Cl)c4)n3)[nH]n2)cc1 [Compound 811]", "IC50": "> 9.86 µM"}
{"compound": "Fc1ccc(CNc2ncccc2-c2ncnc(Nc3cccc(Cn4ccnn4)c3)n2)cc1 [Compound 1102]", "IC50": "> 9.92 µM"}
{"compound": "COc1cc(Nc2ncnc(-c3cccnc3NC3CCc4ccccc43)n2)cc(OC)c1OC (stereo not drawn) [Compound 846]", "IC50": "> 9.56 µM"}
{"compound": "c1ccc(Nc2ncccc2-c2ncnc(Nc3cccc(Cn4ccnn4)c3)n2)cc1 [Compound 1095]", "IC50": "> 10.7 µM"}
{"compound": "COC(=O)c1ccc(-c2cc(Nc3ncnc(NCc4cccnc4)n3)[nH]n2)cc1 [Compound 809]", "IC50": "5.96 to 8.7 µM"}
{"compound": "CC(C)Nc1ncccc1-c1ncnc(Nc2cccc(CC(=O)O)c2)n1 [Compound 1097]", "IC50": "6.59 to 9.6 µM"}
{"compound": "OCc1cccc(Nc2ncnc(-c3cccnc3NCc3ccccc3)n2)c1 [Compound 1103]", "IC50": "> 11.7 µM"}
{"compound": "O=C(O)CCc1cccc(Nc2ncnc(Nc3cc(-c4ccco4)[nH]n3)n2)c1 [Compound 887]", "IC50": "< 1.02 µM"}
{"compound": "COc1cc(C)c(Nc2ncnc(Nc3cc(-c4ccc(Cl)cc4)n[nH]3)n2)cc1OC [Compound 1128]", "IC50": "0.913 to 5.48 µM"}
{"compound": "COC(=O)c1ccc(-c2cc(Nc3ncnc(NCCCO)n3)[nH]n2)cc1 [Compound 818]", "IC50": "> 12.2 µM"}
{"compound": "COc1cc(Nc2ncnc(Nc3cccc(Cl)c3)n2)cc(OC)c1 [Compound 723]", "IC50": "6.71 to 9.78 µM"}
{"compound": "COc1cc(Nc2ncnc(-c3cccnc3NC(C)c3cccc4ccccc34)n2)cc(OC)c1OC (stereo not drawn) [Compound 845]", "IC50": "> 8.85 µM"}
{"compound": "COc1cc(Nc2ncnc(Nc3ccc(OCCO)cc3)n2)cc(OC)c1OC [Compound 636]", "IC50": "> 10.9 µM"}
{"compound": "C#Cc1cccc(Nc2ncnc(Nc3cc(-c4ccccc4)n[nH]3)n2)c1 [Compound 1008]", "IC50": "1.13 to 6.79 µM"}
{"compound": "COc1ccc(Nc2ncnc(N(C)c3ccc(F)cc3F)n2)cc1OC [Compound 801]", "IC50": "1.07 to 6.43 µM"}
{"compound": "CCN(c1cccc(Cl)c1)c1ncnc(Nc2cc(OC)cc(OC)c2)n1 [Compound 724]", "IC50": "1.04 to 6.22 µM"}
{"compound": "COC(=O)c1cccc(Nc2ncnc(-n3c(NCc4ccccc4)nc4ccccc43)n2)c1 [Compound 1067]", "IC50": "> 9.97 µM"}
{"compound": "CN(c1cccc(Cl)c1)c1ncnc(Nc2ccc3c(cnn3C)c2)n1 [Compound 674]", "IC50": "1.09 to 6.56 µM"}
{"compound": "Cc1ccc2c(c1)CCCN2c1ncnc(Nc2ccc(F)c(F)c2)n1 [Compound 893]", "IC50": "1.13 to 6.79 µM"}

Hello, the source for this data is patent US7074789B2, in case you need it.
